- tested.on: full length AKT E17K (Homo sapiens, UniProt P31749, E17K)
- Construct: host or cells: HEK-293 (ATCC CRL-1573)
- Sequence (P31749 whole entry E17K): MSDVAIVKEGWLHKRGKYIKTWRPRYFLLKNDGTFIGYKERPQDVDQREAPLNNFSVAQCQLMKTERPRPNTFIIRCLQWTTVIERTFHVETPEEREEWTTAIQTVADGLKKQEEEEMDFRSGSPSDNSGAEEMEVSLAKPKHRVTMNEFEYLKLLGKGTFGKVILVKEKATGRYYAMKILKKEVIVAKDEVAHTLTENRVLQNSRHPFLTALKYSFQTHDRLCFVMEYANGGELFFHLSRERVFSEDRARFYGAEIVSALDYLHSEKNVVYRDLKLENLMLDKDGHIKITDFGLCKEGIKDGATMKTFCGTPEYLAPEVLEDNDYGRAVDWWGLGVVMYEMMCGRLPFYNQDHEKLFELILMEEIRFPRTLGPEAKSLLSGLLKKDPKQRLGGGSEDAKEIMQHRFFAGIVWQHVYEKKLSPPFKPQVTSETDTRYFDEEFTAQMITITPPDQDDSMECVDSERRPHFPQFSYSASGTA
- procedure.details: NanoBRET Target Engagement (TE) Assay
- Assay type: cell-based
- test.conditions: competitive displacement of tracer in cells, read-out: AKT1 E17K IC50
Assign IC50 to each entry below.

Data request, read-out IC50, for `N#Cc1nccc(N2CCN(Cc3ccc(-n4c(-c5cccnc5N)nc5ccc(-c6ccc(Cl)cc6)nc54)cc3)CC2)n1`
15 to 60 nM

Data request, read-out IC50, for `N#Cc1nccc(NC2CCN(Cc3ccc(-n4c(-c5cccnc5N)nc5ccc(C(=O)O)nc54)cc3)CC2)n1`
600 to 10000 nM

Data request, read-out IC50, for `N#Cc1ccnc(N2CCN(Cc3ccc(-n4c(-c5cccnc5N)nc5ccc(-c6cccc(=O)[nH]6)nc54)cc3)CC2)n1`
15 to 60 nM

Data request, read-out IC50, for `N#Cc1nccc(NC2CCN(Cc3ccc(-n4c(-c5cccnc5N)nc5ccc(-c6cocn6)nc54)cc3)CC2)n1`
< 15 nM

Data request, read-out IC50, for `N#Cc1nccc(NC2CCN(Cc3ccc(-n4c(-c5cccnc5N)nc5ccc(-n6cncn6)nc54)cc3)CC2)n1`
< 15 nM

Data request, read-out IC50, for `N#Cc1nccc(NC2CCN(Cc3ccc(-n4c(-c5cccnc5N)nc5ccc(C6COC6)nc54)cc3)CC2)n1`
< 15 nM

Data request, read-out IC50, for `N#Cc1nccc(NC2CCN(Cc3ccc(-n4c(-c5cccnc5N)nc5ccc(-c6ccc(F)cc6C#N)nc54)cc3)CC2)n1`
15 to 60 nM

Data request, read-out IC50, for `N#Cc1ccnc(NC2CCN(Cc3ccc(-n4c(-c5cccnc5N)nc5ccc(N6CCCNC(=O)C6)nc54)cc3)CC2)n1`
60 to 600 nM

Data request, read-out IC50, for `CC(=O)N(C)C1CCN(c2cccc(-c3ccc4nc(-c5cccnc5N)n(-c5ccc(CN6CCC(Nc7ccnc(C#N)n7)CC6)cc5)c4n3)c2)CC1`
15 to 60 nM

Data request, read-out IC50, for `N#Cc1nccc(NC2CCN(Cc3ccc(-n4c(-c5cccnc5N)nc5ccc(OC(F)(F)F)nc54)cc3)CC2)n1`
60 to 600 nM

Data request, read-out IC50, for `N#Cc1nccc(NC2CCN(Cc3ccc(-n4c(-c5cccnc5N)nc5ccc(-c6cccc(Cl)c6)nc54)cc3)CC2)n1`
60 to 600 nM

Data request, read-out IC50, for `N#Cc1nccc(NC2CCC3(CC2)CN(Cc2ccc(-n4c(-c5cccnc5N)nc5ccc(-c6ccc(F)cc6)nc54)cc2)C3)n1`
15 to 60 nM

Data request, read-out IC50, for `COc1cccc(-c2ccc3nc(-c4cccnc4N)n(-c4ccc(CN5CCC(Nc6ccnc(C#N)n6)CC5)cc4)c3n2)c1`
< 15 nM

Data request, read-out IC50, for `N#Cc1nccc(NC2CCN(Cc3ccc(-n4c(-c5cccnc5N)nc5ccc(-c6ncc(F)cn6)nc54)cc3)CC2)n1`
< 15 nM

Data request, read-out IC50, for `CC(C)C(=O)Nc1cccc(-c2ccc3nc(-c4cccnc4NC(=O)C(C)C)n(-c4ccc(CN5CCC(Nc6ccnc(C#N)n6)CC5)cc4)c3n2)c1`
15 to 60 nM

Data request, read-out IC50, for `N#Cc1ccc(-c2ccc3nc(-c4cccnc4N)n(-c4ccc(CN5CCC(Nc6ccnc(C#N)n6)CC5)cc4)c3n2)cn1`
< 15 nM

Data request, read-out IC50, for `N#Cc1cc(N2C[C@@H]3C[C@H]2CN3Cc2ccc(-n3c(-c4cccnc4N)nc4ccc(-c5ccccc5)nc43)cc2)ncn1`
60 to 600 nM

Data request, read-out IC50, for `[2H]c1nn(C)nc1-c1ccc2nc(-c3cccnc3N)n(-c3ccc(CN4CCC(Nc5ccnc(C#N)n5)CC4)cc3)c2n1`
< 15 nM

Data request, read-out IC50, for `Cn1nncc1-c1ccc2nc(-c3cccnc3N)n(-c3ccc(CN4CCC(Nc5ccnc(C#N)n5)CC4)cc3)c2n1`
15 to 60 nM

Data request, read-out IC50, for `N#Cc1nccc(N2CCN(Cc3ccc(-n4c(-c5cccnc5N)nc5ccc(C6=CCCCC6)nc54)cc3)CC2)n1`
15 to 60 nM
